Values were extracted from ChEMBL document CHEMBL1126987.

- TEST TARGET: GABA-A receptor; anion channel
- MEASUREMENT NOTES: Inhibition of GABA-A receptor by displacement of 35[S]-TBPS
Measured pIC50 of individual entries
Recall that pIC50 is obtained by taking minus log10 of the concentration measured in molar.

>  <COMPOUND>
C[C@]1(CC#N)CCC2C(CC[C@H]3C[C@H](O)CC[C@]23C)C1 (some centres not stated)

>  <pIC50>
5.49

$$$$

Give its pIC50 value. Item: C[C@]12CCC3C[C@H](CCO)CCC3C1CC[C@@H]2C#N (some centres not stated)
5.35

Check CC(=O)C1CC[C@H]2[C@@H]3CC[C@H]4C[C@H](O)CC[C@]4(C)[C@H]3CC[C@]12C (some centres not stated) too.
6.74

Check C[C@]12CCC3C[C@H](CCO)CCC3C1CCC2=O (some centres not stated) too.
4.36

Check CC(=O)[C@@]1(C)CCC2C(CC[C@H]3C[C@H](O)CC[C@]23C)C1 (some centres not stated) too.
5.15

Check CC(=O)C[C@@]1(C)CCC2C(CC[C@H]3C[C@H](O)CC[C@]23C)C1 (some centres not stated) too.
5.40

Check CC(=O)[C@H]1CCC2C3CC[C@@H](CCO)CC3CC[C@@]21C (some centres not stated) too.
5.24
